# method summary: amyloid nucleation score (Sup35N fusion, yeast selection) (log enrichment); library NNK3; higher = more nucleation; inactive = no reads after selection;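 further: zero at mode of non-aggregating sequences after 7 days selection at 30°C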
measured quantity: amyloid nucleation score

[
  {
    "substance": "THPVSCRYVSPDMSSAHYFV",
    "result": "inactive"
  },
  {
    "substance": "LLSILTWVSIYRRCFSFTAR",
    "result": -0.758
  },
  {
    "substance": "SLNKHR",
    "result": "inactive"
  },
  {
    "substance": "AYRSKLKLCSYWIMGCVHPL",
    "result": "inactive"
  },
  {
    "substance": "KLTNLI",
    "result": "inactive"
  },
  {
    "substance": "VVLQDPGSLYEPRSHGTWFT",
    "result": "inactive"
  }
]

substance `YCKFDS` , amyloid nucleation score observed: 0.705

The recorded amyloid nucleation score for `CISRKFFSVRSVYLWYVSAT` is inactive

###

# method summary: amyloid nucleation score (Sup35N fusion, yeast selection) (log enrichment); library NNK1; higher = more nucleation; inactive = no reads after selection

[
  {
    "substance": "KHDIIESQPQVVHNNRCVWL",
    "amyloid nucleation score": "inactive"
  },
  {
    "substance": "ASSVHPRYFLNMTSSGVRKS",
    "amyloid nucleation score": "inactive"
  },
  {
    "substance": "LNYIQNC",
    "amyloid nucleation score": "inactive"
  }
]

###

# method summary: amyloid nucleation score (Sup35N fusion, yeast selection) (log enrichment); library NNK2; higher = more nucleation; inactive = no reads after selection
Each entry below carries its recorded amyloid nucleation score.
Lab note: jot down the number only; don't add units.

Past entries and their recorded results:
[
  {
    "substance": "YNIFPIISLITRNK",
    "numeric result": 6.42
  },
  {
    "substance": "RFGSADVSITRVDFSS",
    "numeric result": 0.961
  },
  {
    "substance": "CDRLSVNHFKEAGVQGSLSE",
    "numeric result": 0.851
  },
  {
    "substance": "SVIRSCVNIDSLVKVEWGAS",
    "numeric result": 6.72
  },
  {
    "substance": "GALYLRDVLVICIMCGKIRY",
    "numeric result": 2.73
  }
]

Documented amyloid nucleation score of `RALVSRCRVCADKSPASSCD` : -0.411

###

# method summary: amyloid nucleation score (Sup35N fusion, yeast selection) (log enrichment); library NNK1; higher = more nucleation; inactive = no reads after selection
Would you please tag the item true when its amyloid nucleation score is 1 or above, and false when it is below?

[
  {
    "item sequence": "CYVNLTFPVLVEACTASFTD",
    "category": "true"
  }
]

Reported amyloid nucleation score at or above 1? `NWGCFQYSGTGNRLGTNAPV`
false

Does `NHVYCVWMRMFMIYFNL` have a reported amyloid nucleation score of at least 1?
false

Item `FIVTYSNTIRYSMPSKLPWQ` with amyloid nucleation score of 1 or above?
true

Check if amyloid nucleation score >= 1 (inclusive). Item: `ISKISPFECGPVVAQ`
true

Check the entry `TCQFFRLSNRILQGDYSILM` : does amyloid nucleation score equal or exceed 1?
false

###

# method summary: amyloid nucleation score (Sup35N fusion, yeast selection) (log enrichment); library NNK3; higher = more nucleation; inactive = no reads after selection
measured quantity: amyloid nucleation score

[
  {
    "substance": "QTRVHLFAREPPCFTEFNER",
    "amyloid nucleation score": "inactive"
  },
  {
    "substance": "FGSSMYRMKPVDC",
    "amyloid nucleation score": "inactive"
  },
  {
    "substance": "NIIEPFKWTTTSLYNSDFYF",
    "amyloid nucleation score": "inactive"
  },
  {
    "substance": "NFLNCVFRYIYD",
    "amyloid nucleation score": 2.54
  },
  {
    "substance": "TVMVKSSYGLNCFGRSF",
    "amyloid nucleation score": 0.743
  }
]

Looking up `TRLCFIAVPLSFFMVWDTSR` , I see its amyloid nucleation score listed as inactive

Reported amyloid nucleation score of `KSFELYSKNVMYDSVLGVCL` : inactive

# amyloid nucleation score (substance: `TVPFTPIICESVFSD` ) is inactive

The measured amyloid nucleation score associated with `ATTDGTVSCVYPRFRLFWCI` reads inactive

response.value for `LQLRSLF` (field: amyloid nucleation score) = inactive

# amyloid nucleation score of `AAFAREDRCSLLVWYSTCWD` = inactive

Just so you know, measured amyloid nucleation score for `VRLNALIHDIVMMVWGTMHG` came out at inactive

Notebook: `FHVSCSSFSKWNHENWHNLK` , amyloid nucleation score read as 0.006

Recorded result, `FMKSRINIRIALWCF` , amyloid nucleation score: inactive

Lab note: measured amyloid nucleation score of `TCLWFLFIKRSSRDSEIWS` was 0.209

Just so you know, measured amyloid nucleation score for `FRNSGTNACIL` came out at inactive

Value of measured amyloid nucleation score for the entry `RDRLKVLLLIFHSRDDTRTK` : inactive

Input `HKMRRAYLKECFVWDYVSCD` . Output amyloid nucleation score: inactive

Entry `YWLSPDKICTYYLVWVRRAP` — recorded amyloid nucleation score = inactive

Notebook: `VQPSFTMYMEFSCACVAMQL` , amyloid nucleation score read as -0.423

Record `RLLRVGFMLRFLIMIRRVRF` . Reported amyloid nucleation score: -0.365

Data point: `RSALRVM` ; amyloid nucleation score = inactive

For record `DRTTSVGPYSAVLGFMCDWW` the listed amyloid nucleation score is inactive
